- RUN_DESCRIPTION: in vivo
- TEST_CONTEXT: female, Sprague-Dawley, rat, po, 18 g/kg, AUC0-t in uterus
PROPERTY_NAME: AUC(0-t)

Lab book: AUC(0-t) of O=C1c2cc(O)cc(O)c2C(=O)c2c(O)cc(CO)cc21 noted as 0.104 µM·h

###

- RUN_DESCRIPTION: Tissue distribution of RPM constituents after oral RPM extract
- TEST_CONTEXT: female, Sprague-Dawley, rat, uterus, po, 18 g/kg, AUC0-t in uterus, rat tissue: uterus; 18 g/kg RPM extract p.o.; tissues collected at 5, 15, 60 min
In this section we review reported AUC(0-t) values for a set of compounds.
Give the value in µM·h but do not write µM·h after it.

# COMPOUND, AUC(0-t) / µM·h
data = [
    ("Cc1cc(O)c2c(c1)C(=O)c1cccc(O)c1C2=O", 0.029),
    ("OC[C@H]1O[C@@H](Oc2c(O)cc(O)cc2/C=C/c2ccc(O)cc2)[C@H](O)[C@@H](O)[C@@H]1O", 12.2),
]

Looking up COc1cc(O[C@@H]2O[C@H](CO)[C@@H](O)[C@H](O)[C@H]2O)c2c(c1)C(=O)c1cc(C)cc(O)c1C2=O [PG, physcion-8-O-β-D-glucoside] , I found its AUC(0-t) recorded as 0.735

Looking up COc1cc(O)cc2c1C(=O)c1c(O)cc(CO)cc1C2=O , I see its AUC(0-t) listed as 0.0186

COc1cc(O[C@@H]2O[C@H](CO)[C@@H](O)[C@H](O)[C@H]2O)c2c(O)c(C(C)=O)c(C)cc2c1 [TG, torachrysone-8-O-glucoside] yielded AUC(0-t) of 0.38

Reference source for all entries: paper PMC8899820
